Give measured IC50 for each item. Keep answers brief.
- EXPERIMENTAL SYSTEM: UniProtKB Q99571
- PROTOCOL DESCRIPTION: Assay B: human P2X4 receptor cell line, mitochondrial photina luminescence (agonist Bz-ATP at EC50)
- Format: cell-based
- Parameters: host or cells: HEK 293 (recombinant, constitutively expressing; with mitochondrial photina in Assay B)
- CONDITION SUMMARY: HEK human P2X4 cell line, photina luminescence, agonist Bz-ATP at EC50, average

These recorded examples may help you get a feel for the data.
[
  {
    "SMILES CODE": "N#Cc1ccc(Oc2ccc(NC(=O)Cc3ccccc3Cl)cc2S(N)(=O)=O)cc1C#N",
    "EXPERIMENTAL SYSTEM": "UniProtKB Q99571",
    "METRIC NAME": "IC50",
    "OBS VALUE": "> 16000 nM"
  },
  {
    "SMILES CODE": "NS(=O)(=O)c1cc(NC(=O)Cc2cccnc2Cl)ccc1Oc1cccc(Cl)c1",
    "EXPERIMENTAL SYSTEM": "UniProtKB Q99571",
    "METRIC NAME": "IC50",
    "OBS VALUE": "216 nM"
  },
  {
    "SMILES CODE": "COc1cccc(Oc2ccc(NC(=O)Cc3ccccc3)cc2S(N)(=O)=O)c1",
    "EXPERIMENTAL SYSTEM": "UniProtKB Q99571",
    "METRIC NAME": "IC50",
    "OBS VALUE": "439 nM"
  }
]

State the recorded IC50 for every item in the following list.
1. NS(=O)(=O)c1cc(NC(=O)Cc2cccc(F)c2Cl)ccc1Oc1cccc(Cl)c1
2. NS(=O)(=O)c1cc(NC(=O)Cc2ccccc2Cl)ccc1Oc1cncc(F)c1
3. NS(=O)(=O)c1cc(NC(=O)Cc2cccc(C(F)(F)F)c2Cl)ccc1Oc1cccc(Cl)c1
4. Cc1cc(CC(=O)Nc2ccc(Oc3cccc(Cl)c3)c(S(N)(=O)=O)c2)c(Cl)cc1Br

a:
25 nM
140 nM
901 nM
1890 nM

q: Please give the measured IC50 for this compound: `COc1ccc(Cl)c(CC(=O)Nc2ccc(Oc3cccc(Cl)c3)c(S(N)(=O)=O)c2)c1`
a: 84 nM

---

- EXPERIMENTAL SYSTEM: P2X4 (Homo sapiens)
- Sequence (Q99571 whole entry): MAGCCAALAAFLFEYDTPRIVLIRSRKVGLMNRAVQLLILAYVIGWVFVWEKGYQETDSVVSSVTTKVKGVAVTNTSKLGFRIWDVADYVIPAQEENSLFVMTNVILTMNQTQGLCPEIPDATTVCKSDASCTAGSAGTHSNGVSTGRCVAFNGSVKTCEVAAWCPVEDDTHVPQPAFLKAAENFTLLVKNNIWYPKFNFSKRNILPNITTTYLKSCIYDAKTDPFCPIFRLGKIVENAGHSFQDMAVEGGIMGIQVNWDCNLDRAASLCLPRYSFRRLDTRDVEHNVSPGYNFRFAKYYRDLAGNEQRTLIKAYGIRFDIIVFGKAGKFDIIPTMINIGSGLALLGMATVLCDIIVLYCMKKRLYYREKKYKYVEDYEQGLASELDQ
- PROTOCOL DESCRIPTION: Assay B: human P2X4 receptor cell line, mitochondrial photina luminescence (agonist Bz-ATP at EC50)
- Assay type: cell-based
- Design: host or cells: HEK 293 (recombinant, constitutively expressing; with mitochondrial photina in Assay B)
- CONDITION SUMMARY: HEK human P2X4 cell line, photina luminescence, agonist Bz-ATP at EC50, average
Give measured log10 of IC50 for each item. Keep answers brief.
The figures below represent log10 of IC50, where IC50 is stated in nM.

These recorded examples may help you get a feel for the data.
[
  {
    "COMPOUND": "COc1ccc(CC(=O)Nc2ccc(Oc3ccc(Cl)cc3)c(S(N)(=O)=O)c2)cc1",
    "log10 of IC50": 1.89
  },
  {
    "COMPOUND": "N#Cc1ncc(Cl)cc1Oc1ccc(NC(=O)Cc2ccccc2Cl)cc1S(N)(=O)=O",
    "log10 of IC50": 4.06
  },
  {
    "COMPOUND": "NS(=O)(=O)c1cc(NC(=O)Cc2ccccc2)ccc1OC1CCOCC1",
    "log10 of IC50": 4.03
  },
  {
    "COMPOUND": "NS(=O)(=O)c1cc(NC(=O)Cc2ccccc2Cl)ccc1Oc1ccc(C2CCC(=O)N2)cc1 (centres unmarked)",
    "log10 of IC50": 2.66
  },
  {
    "COMPOUND": "NS(=O)(=O)c1cc(NC(=O)Cc2ccccc2Cl)ccc1Oc1ccc(-n2ccnc2)cc1",
    "log10 of IC50": 2.66
  }
]

State the recorded log10 of IC50 for every item in the following list.
1. CS(=O)(=O)c1cccc(Oc2ccc(NC(=O)Cc3ccccc3Cl)cc2S(N)(=O)=O)c1
2. NS(=O)(=O)c1cc(NC(=O)Cc2ccccc2Cl)ccc1Oc1ccc2c(c1)OCO2

a:
1: 2.05; 2: 1.86

State the recorded log10 of IC50 for every item in the following list.
1. CC(Oc1ccc(NC(=O)Cc2ccccc2Cl)cc1S(N)(=O)=O)c1ccccc1 (single isomer, unassigned) [Example 148A]
2. NS(=O)(=O)c1cc(NC(=O)Cc2ccccc2OCCO)ccc1Oc1cccc(Cl)c1
3. COc1cccc(CC(=O)Nc2ccc(Oc3cccc(Cl)c3)c(S(N)(=O)=O)c2)c1
4. NS(=O)(=O)c1cc(NC(=O)Cc2ccc(C(F)(F)F)cc2Cl)ccc1Oc1cccc(Cl)c1

a:
1. 2.16
2. 2.91
3. 2.17
4. 2.94
